src = ChEMBL document CHEMBL1772954

tested on: Candida tropicalis; experiment: Antifungal activity against Candida tropicalis C 131 2000; assay type: functional
Test Readout: MIC (µg/mL)

The following compounds have reported results that may help.
Structure: COc1ccc(N2C(=O)C=CC2=O)c(OC)c1
Test Readout: MIC
Data Value: 15.6

Structure: COc1cccc(N2C(=O)C=CC2=O)c1
Test Readout: MIC
Data Value: 15.6

Structure: O=C1C=CC(=O)N1c1ccc(I)cc1
Test Readout: MIC
Data Value: 31.2

Structure: O=C1C(Cl)=C(Cl)C(=O)N1Cc1ccccc1
Test Readout: MIC
Data Value: 31.2

Structure: CCCCN1C(=O)C=CC1=O
Test Readout: MIC
Data Value: 3.9

Structure: C[C@@H]1[C@H](O)[C@@H](C)/C=C/C=C/C=C/C=C/C=C/C=C/C=C/[C@H](O[C@@H]2O[C@H](C)[C@@H](O)[C@H](N)[C@@H]2O)C[C@@H]2O[C@](O)(C[C@@H](O)C[C@@H](O)[C@H](O)CC[C@@H](O)C[C@@H](O)CC(=O)O[C@H]1C)C[C@H](O)[C@H]2C(=O)O
Test Readout: MIC
Data Value: 0.48

a. CC1=CC(=O)N(CCCCc2ccccc2)C1=O
b. COc1ccc(N2C(=O)C=CC2=O)cc1OC
Kindly compare a with b and tell me which has the lower MIC figure. Answer format: the label of the selected item.
b

I. O=C1C(Cl)=C(Cl)C(=O)N1CCc1ccccc1
II. CCCN1C(=O)C=CC1=O
III. CC1=CC(=O)N(Cc2ccccc2)C1=O
IV. CN1C(=O)C=CC1=O
Arrange the 4 entries by MIC so the values rise. Ranked list of labels, please, in the requested order.
I, IV, II, III

A. Cc1ccc(N2C(=O)C=CC2=O)cc1
B. CC1=CC(=O)N(CCCc2ccccc2)C1=O
Kindly compare A with B and tell me which has the lower MIC figure. Answer format: the label of the selected item.
A
(A: 15.6 µg/mL, B: 125 µg/mL)

---

tested on: Aspergillus niger; assay: Antifungal activity against Aspergillus niger ATCC 9029; assay type: functional
Test Readout: MIC (µg/mL)

Molecule: O=C1C=CC(=O)N1CCCc1ccccc1
MIC, µg/mL: 15.6
//
Molecule: COc1ccc(N2C(=O)C=CC2=O)c(OC)c1
MIC, µg/mL: 15.6
//
Molecule: O=C1C=CC(=O)N1c1ccccc1
MIC, µg/mL: 31.2

P. O=C1C=CC(=O)N1c1ccc(Cl)cc1
Q. CCCCN1C(=O)C=CC1=O
Kindly compare P with Q and tell me which has the lower MIC figure. Answer format: the label of the selected item.
Q

P. O=C1C(Cl)=C(Cl)C(=O)N1CCCc1ccccc1
Q. O=C1C=CC(=O)N1c1ccc(Br)cc1
R. COc1ccc(N2C(=O)C=CC2=O)cc1OC
S. O=C1C=CC(=O)N1CCCCc1ccccc1
Arrange the 4 entries by MIC so the values rise. Ranked list of labels, please, in the requested order.
S, P, Q, R

---

Reported MFC is given for each of the following compounds.
test system: Cryptococcus neoformans; experiment: Antifungal activity against Cryptococcus neoformans ATCC 32264; assay type: functional
Provide the reading as a plain figure in µg/mL.

The following compounds have reported results that may help.
Compound: O=C1C=CC(=O)N1c1ccc(Br)cc1
System Name: Cryptococcus neoformans
Data Value: 15.6
//
Compound: CC(=O)N1CCN(c2ccc(OCC3COC(Cn4ccnc4)(c4ccc(Cl)cc4Cl)O3)cc2)CC1 (stereo not drawn)
System Name: Cryptococcus neoformans
Data Value: 1.95
//
Compound: O=C1C(Cl)=C(Cl)C(=O)N1Cc1ccccc1
System Name: Cryptococcus neoformans
Data Value: 15.6
//
Compound: O=C1C=CC(=O)N1c1ccc(Cl)cc1
System Name: Cryptococcus neoformans
Data Value: 7.81

Let us examine a further case.
MFC lookup needed for COc1ccc(N2C(=O)C=CC2=O)cc1 , thanks.
15.6
